Before we begin, note that these log10(Ki) values for Serine/threonine-protein kinase pim-1 (Homo sapiens, UniProt P11309) originate from several publications.
Measured quantity: log10(Ki) (log10 of the value in nM)

>  <Molecule>
OCCCNc1nc2c(Br)c(Br)c(Br)c(Br)c2[nH]1

>  <log10(Ki)>
1.91

$$$$
>  <Molecule>
Cc1cc(/C=C/C#N)cc(C)c1Nc1ccnc(Nc2ccc(C#N)cc2)n1

>  <log10(Ki)>
2.72

$$$$
>  <Molecule>
CC(O)CNc1nc2c(Br)c(Br)c(Br)c(Br)c2[nH]1 (racemic)

>  <log10(Ki)>
1.81

$$$$
>  <Molecule>
CCCC(=O)OCCCn1c(C)nc2c(Br)c(Br)c(Br)c(Br)c21

>  <log10(Ki)>
3.29

$$$$
>  <Molecule>
CCCC(=O)OCCCn1cnc2c(Br)c(Br)c(Br)c(Br)c21

>  <log10(Ki)>
3.35

$$$$
>  <Molecule>
OCC(CO)Nc1nc2c(Br)c(Br)c(Br)c(Br)c2[nH]1

>  <log10(Ki)>
1.97

$$$$
>  <Molecule>
CN(CCO)c1nc2c(Br)c(Br)c(Br)c(Br)c2[nH]1

>  <log10(Ki)>
1.85

$$$$
